Test: inhibition of 3D7 malaria parasite growth – strain 3D7 (AID 2306);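 further: 0% = DMSO wells and 100% = chloroquine plus artemisinin control wells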
Conditions: P. falciparum 3D7 erythrocytic growth, LDH absorbance, 72 h; at 2 µM; stronger effect = higher value
experimental.readout: growth inhibition (%)
Answer in %, number only, no unit symbol.

Entry under test: CCOC(=O)c1ccc(NC(=O)NCCCC2CCCN(CCCCCNC(=O)/C=C/c3ccc(Cl)c(Cl)c3)C2)cc1 (stereo unspecified) . Its growth inhibition was 96

Entry under test: Nc1nc(F)nc2nc[nH]c12 . Its growth inhibition was 89

Entry under test: COc1ccc(N(c2nc(-c3cc(Cl)ccc3Cl)cs2)C2CCNC2)cc1 (stereo unspecified) . Its growth inhibition was 95

Entry under test: Nc1nc(N)c2c(ccc3c2ccn3CC2CC2)n1 . Its growth inhibition was 96

Entry under test: CC(C)CC(=O)N1CCNC[C@@H]1C(=O)NC1CC1 . Its growth inhibition was 82

Entry under test: CN1CCCN(Cc2cccc(-c3cccc(NC(=O)c4ccc(Cl)cc4)c3)c2)CC1 . Its growth inhibition was 100

Entry under test: CCOC(=O)c1ccc(NC(=O)Nc2cccc(-c3cccc(-c4nc5c(C)cccc5[nH]4)c3)c2)cc1 . Its growth inhibition was 100

Entry under test: O=C(Nc1cccc(-c2cccc(-c3nc4ccccc4[nH]3)c2)c1)c1ccoc1 . Its growth inhibition was 85

Entry under test: Cc1ccc(S(=O)(=O)NC2CCN(c3ccnc4cc(Cl)ccc34)C2)cc1 (stereo unspecified) . Its growth inhibition was 99

Entry under test: COc1cc2nc(N(C)Cc3cccc(I)c3)nc(N)c2cc1OC . Its growth inhibition was 101

Entry under test: CCNc1cc(C(=O)N[C@@H](Cc2ccccc2)[C@H](O)CNCc2cc(C#N)ccc2OC)cc(N2CCCC2=O)c1 . Its growth inhibition was 85

Entry under test: CCN(CC)CCCN(C(=O)Nc1ccc(C#N)cc1)c1nc(-c2ccc(F)cc2)cs1 . Its growth inhibition was 99

Entry under test: Cc1cc(N)nc2ccc(-c3ccc(CCN)cc3)cc12 . Its growth inhibition was 101

Entry under test: FC(F)(F)c1ccc2nc(-c3ccc(-c4cccc(CNCCc5ccncc5)c4)s3)[nH]c2c1 . Its growth inhibition was 100

Entry under test: Cc1cnc(C(=O)Nc2ccc(-c3cccc(-c4nc5ccccc5[nH]4)c3)cc2)cn1 . Its growth inhibition was 93

Entry under test: O=C(Nc1ccc(CN2CCCCC2)cc1)c1ccc(COc2ccc([N+](=O)[O-])cc2)o1 . Its growth inhibition was 86

====

Test: human hepatoma cell viability loss – ATP luminescence, cytotoxicity control for P. falciparum antimalarial project, primary screen (AID 2303);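 further: 0% = DMSO wells and 100% = digitonin-killed cells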
Details: HepG2 viability, 24-48 h, at 10 µM
The source made the active and inactive calls.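 The calls were made as follows: active = inhibition above 50%; inactive = the rest.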
Answer with one of the outcomes active, inactive

Exam item: // return assay outcome for O=C(/C=C/c1ccc(C(F)(F)F)cc1)N1CCC(CCN2CCC(c3c[nH]c4ccccc34)CC2)CC1
Marked response: active

Exam item: // return assay outcome for CC(=O)Nc1ccc(OCCCCN(Cc2ccccc2C(F)(F)F)c2ccc(C#N)c(C(F)(F)F)c2)c(Cl)c1
Marked response: inactive

Exam item: // return assay outcome for O=C(NCCN1CCN(S(=O)(=O)c2ccc(OC3CCNCC3)c(Br)c2)CC1)c1ccc(Cl)c(Cl)c1
Marked response: inactive

Exam item: // return assay outcome for COc1cc2c(cc1S(=O)(=O)c1ccc(NC(=O)c3cccc(C(F)(F)F)c3)cc1)CCN(C)CC2
Marked response: inactive

Exam item: // return assay outcome for CC(C)CCNc1nc2ccccc2nc1Nc1cccc(C(F)(F)F)c1
Marked response: inactive

Exam item: // return assay outcome for CCCCCCCCn1c2c(c(=N)c3c1CCC3)CCCC2
Marked response: active

Exam item: // return assay outcome for Cc1cc(N[C@@H](CC(C)C)C(=O)NCCc2ccccc2)nc(NCC2CCCCC2)n1
Marked response: inactive

Exam item: // return assay outcome for CCOc1ccccc1CCNC(C)Cc1ccc(C(=O)Nc2ccc(CC(C)NCCc3cccc(Cl)c3)cc2)cc1 (configuration not stated)
Marked response: active

Exam item: // return assay outcome for COc1ccc(-c2ccc(NC(=O)c3ccc(C#N)cc3)cc2)cc1CN1CCNCC1
Marked response: inactive

Exam item: // return assay outcome for CCN1CCN(Cc2ccc(NC(=O)c3cc4ccc5cccnc5c4[nH]3)cc2)CC1
Marked response: inactive

Exam item: // return assay outcome for CC(Cc1ccc(OCCN2CCN(c3cccc(Cl)c3)CC2)cc1)NCC(O)c1cccc(C(F)(F)F)c1 (configuration not stated)
Marked response: active

Exam item: // return assay outcome for O=C(NC1CC1)c1ccc(Cn2c(SCc3cccc([N+](=O)[O-])c3)nc3ccccc3c2=O)cc1
Marked response: inactive

Exam item: // return assay outcome for Oc1ccc(CCNCCCCNCCc2ccc(Cl)cc2)cc1O
Marked response: inactive

Exam item: // return assay outcome for CON=C1CCC(Cn2ccnc2)(c2ccc(Cl)cc2Cl)CC1 (configuration not stated)
Marked response: inactive

Exam item: // return assay outcome for O=C(NCCCCCN1CCC(c2c[nH]c3ccccc23)CC1)Nc1ccc(I)c(Cl)c1
Marked response: active

Exam item: // return assay outcome for Clc1ccc(CNc2ccnc(NCCc3coc4ccccc34)n2)c(Cl)c1
Marked response: inactive

Exam item: // return assay outcome for O=C(Nc1ccc(OC2CCN(Cc3ccc(F)cc3)CC2)c(Cl)c1)c1ccc(F)cc1
Marked response: inactive

Exam item: // return assay outcome for CN1CCN(Cc2c(O)ccc3c(=O)c(Oc4ccc(C(C)(C)C)cc4)c(C(F)(F)F)oc23)CC1
Marked response: inactive

Exam item: // return assay outcome for CN(CCCN)CCCNc1ccnc2cc(Cl)ccc12
Marked response: inactive

Exam item: // return assay outcome for CC(C)C[C@H](NC(=O)c1cc2ccccc2s1)C(=O)N[C@H]1CCN(Cc2ccc(OCCCN(C)C)c(Cl)c2)C1
Marked response: active

Exam item: // return assay outcome for CCN(CC)c1ccc(-c2nc3ncc(Cl)cc3[nH]2)cc1
Marked response: inactive

Exam item: // return assay outcome for O=C(/C=C/c1ccc(Cl)c(Cl)c1)NCCCCN1CCCN(C(=O)Nc2ccc(F)c(Cl)c2)CC1
Marked response: active

Exam item: // return assay outcome for CC(C#N)Cc1ccc(-c2cnc(N)c3cc(-c4ccnc(N)n4)ccc23)cc1 (configuration not stated)
Marked response: active

Exam item: // return assay outcome for COc1ccc(CN(C)CCOc2ccc(NC(=O)c3cccc4c(=O)cc(-c5ccccc5)[nH]c34)cc2)cc1OC
Marked response: inactive

Exam item: // return assay outcome for COc1cc(C(=O)Nc2cccc(-c3cn4ccc(C)cc4n3)c2)cc(OC)c1OC
Marked response: inactive

Exam item: // return assay outcome for Cc1nc(-c2cccc(Nc3nccc(NCC(O)c4ccccc4)n3)c2)cs1 (configuration not stated)
Marked response: inactive

Exam item: // return assay outcome for COc1cc(C=CC(=O)N2CCN(Cc3cccc(C)c3)CC2)ccc1OCc1c(C)noc1C
Marked response: inactive

Exam item: // return assay outcome for CN(CCN)Cc1ccc(-c2ccc(-c3nc4ccc(C(F)(F)F)cc4[nH]3)s2)cc1
Marked response: inactive

Exam item: // return assay outcome for CCCCN1CCN(CCCNc2c3ccccc3nc3ccccc23)CC1
Marked response: inactive

Exam item: // return assay outcome for COc1ccc2nccc(N3CCC(O)(CCNCc4ccc5c(n4)NC(=O)CO5)CC3)c2n1
Marked response: inactive

Exam item: // return assay outcome for Oc1cc(Nc2ccnc3cc(-c4ccc(CN5CCCCC5)o4)ccc23)c(Cl)cc1F
Marked response: inactive

Exam item: // return assay outcome for CC1CN(Cc2ccc(C#N)cc2)CCN1c1ccc(NC(=O)c2cccs2)cc1 (configuration not stated)
Marked response: inactive

Exam item: // return assay outcome for O=C(C=Cc1cccs1)N(CCCn1ccnc1)c1nc2ccc(F)cc2s1
Marked response: inactive

Exam item: // return assay outcome for COc1ccc2ncc(F)c(CCN3CC[C@H](NC(=O)c4ccc5c(n4)NC(=O)CS5)[C@H](O)C3)c2n1
Marked response: inactive

Exam item: // return assay outcome for Cc1cc(C)c(C)c(OCCCON2C(N)=NC(N)=NC2(C)C)c1C
Marked response: active

Exam item: // return assay outcome for CCNc1cc(C(=O)N[C@@H](Cc2ccccc2)[C@H](O)CNC(C)(C)c2cccc(OC)c2)cc(N2CCCC2=O)c1
Marked response: inactive

Exam item: // return assay outcome for COC(=O)c1cc(/C(C)=N/Nc2nc3ccccc3[nH]2)ccc1O
Marked response: inactive

====

Could you please report measured inhibition for the items listed next?
Experiment: human hepatoma cell viability loss – ATP luminescence, cytotoxicity control for P. falciparum antimalarial project, primary screen (AID 2303);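 further: 0% = DMSO wells and 100% = digitonin-killed cells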
Settings: HepG2 viability, 24-48 h, at 10 µM, stronger effect = higher value
Answer in %, number only, no unit symbol.

Entry under test: COc1cc(-c2cc(-c3ccc(OCCN(C)C)cc3)[nH]c2-c2ccncc2)ccc1Cl . Its inhibition was 28

Entry under test: COc1ccc(CCn2c(=N)c(C(=O)NCc3ccccc3)cc3c(=O)n4ccccc4nc32)cc1 . Its inhibition was 14

Entry under test: FC(F)(F)c1ccc2nccc(NN=Cc3ccccc3Cl)c2c1 . Its inhibition was -6
